Molecular target: T1, Human EphA2-Fc fusion protein (human EphA2 fused with the Fc portion of a human IgG1) (human, UniProt P29317 24-534, limits assumed)
T1 construct: also called biotinylated human EphA2-Fc; not shown: Fc portion of a human IgG1
T1 sequence (P29317 24-534 limits assumed): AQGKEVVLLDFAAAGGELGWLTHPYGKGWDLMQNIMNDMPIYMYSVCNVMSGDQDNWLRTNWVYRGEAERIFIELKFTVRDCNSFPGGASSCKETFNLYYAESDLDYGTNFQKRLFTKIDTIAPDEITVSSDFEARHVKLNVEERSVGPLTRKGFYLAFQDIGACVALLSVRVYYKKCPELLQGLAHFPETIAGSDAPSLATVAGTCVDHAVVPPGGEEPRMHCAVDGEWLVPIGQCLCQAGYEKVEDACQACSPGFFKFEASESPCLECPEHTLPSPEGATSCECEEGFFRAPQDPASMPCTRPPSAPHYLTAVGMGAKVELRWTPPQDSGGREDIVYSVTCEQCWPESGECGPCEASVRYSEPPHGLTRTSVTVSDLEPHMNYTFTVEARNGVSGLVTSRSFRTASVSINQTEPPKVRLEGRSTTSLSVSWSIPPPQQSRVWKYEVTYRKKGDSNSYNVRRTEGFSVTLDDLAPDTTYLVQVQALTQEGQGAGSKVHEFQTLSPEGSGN
Test: SPR (BIAcore 3000), EphA2-Fc coupled to CM5 chip, IgG in solution, 1:1 Langmuir fit
Procedure: IgGs were diluted in 0.01 M HEPES pH 7.4 containing 0.15 M NaCl, 3 mM EDTA and 0.005% P20. All subsequent dilutions were made in the same buffer. All binding experiments were performed at 25° C. with IgG concentrations typically ranging from 100 nM to 0.2 nM at a flow rate of 75 μL/min; data were collected for approximately 25 min and one 1-min pulse of 1 M NaCl, 50 mM NaOH was used to regenerate the surfaces. […]
measured.attribute: koff

get_value(item= VH-233/VL-233 IgG (chimaeric form of mAb B233, full length human IgG1) (antibody, V domains shown, Human IgG1 / human kappa constant regions, expressed in HEK 293 cells; also called VH-B233/VL-B233 (chimeric); chimaeric B233) VH: EVKLVESGGGLVQPGGSLSLSCAASGFTFTDYSMNWVRQPPGKALEWLGFIRNKANDYTTEYSASVKGRFTISRDNSQSILYLQMNALRAEDSATYYCVRYPRYHAMDSWGQGTSVTVSS VL: DIVLTQSPATLSVTPGDSVNLSCRASQSISNNLHWYQQKSHESPRLLIKYVFQSISGIPSRFSGSGSGTDFTLSINSVETEDFGMYFCQQSNSWPLTFGAGTKLELK , readout=koff) returns 8e-05 s⁻¹
